The measurements presented in this section are drawn from patent US10183949B2.

molecular target: Human autotaxin enzyme (Homo sapiens, UniProt Q13822); construct: purchased R&D System; experiment: Evaluation of autotaxin inhibitor, 18:0 Lyso PC / choline assay (Test Example 2); assay type: biochemical; settings: human autotaxin enzyme, 18:0 Lyso PC substrate, choline assay, room temperature 2 hours; read-out: Inhibitor activity (IC50)
QUANTITY KIND: IC50

> print(dat)
                                    compound  reported.result
 1  COc1ccc(Cn2c(-c3ccc(Cl)cc3)cc(=O)n(CC(=O)NC(Cc3ccccc3)C(=O)O)c2=O)cc1 (centres unmarked)        ≥ 1000 nM
 2  O=C(O)Cn1c(CCCC(F)(F)F)nc(-c2ccc(Cl)cc2CO)cc1=O        ≥ 1000 nM
 3  CC(C)(O)C1CCN(C(=O)Cn2c(CCCC(F)(F)F)nc(-c3ccc(C(F)(F)F)cc3)cc2=O)CC1     10 to 100 nM
 4  COC(=O)c1ccc(Cn2c(CCCC(F)(F)F)nc(-c3ccc(Cl)cc3)cc2=O)o1     10 to 100 nM
 5  CCCCCc1nc(-c2ccc(Cl)cc2)cc(=O)n1CC(=O)NCC1(CO)COC1     10 to 100 nM
 6  CCCCCNc1nc(-c2ccc(C(F)(F)F)cc2)cc(=O)n1Cc1ccc(C(=O)NCC(N)=O)cc1        ≥ 1000 nM
 7  O=C(NCC1(CO)COC1)c1cccc(Cn2c(CCCC(F)(F)F)nc(-c3ccc(Cl)cc3)cc2=O)n1     10 to 100 nM
 8  COC(=O)Nc1cc(Cl)ccc1-c1cc(=O)n(CC(=O)N2C(C)(C)CC(O)CC2(C)C)c(C)n1        ≥ 1000 nM
 9  Cc1nc(-c2ccc(Cl)cc2NC(=O)C2CC2)cc(=O)n1CC(=O)NCC1(CO)COC1     10 to 100 nM
10  O=C(NCc1cccnc1O)c1cccc(Cn2c(CCCC(F)(F)F)nc(-c3ccc(Cl)cc3)cc2=O)c1   100 to 1000 nM
11  COC(=O)Nc1cc(C#N)ccc1-c1cc(=O)n(Cc2cccc(-c3nc(=O)o[nH]3)c2)c(C)n1          < 10 nM
12  CCOC(=O)c1nc(Cn2c(CCCC(F)(F)F)nc(-c3ccc(Cl)cc3)cc2=O)cs1     10 to 100 nM
13  Cc1nc(CNC(=O)c2cccc(Cn3c(CCCC(F)(F)F)nc(-c4ccc(Cl)cc4)cc3=O)c2)no1   100 to 1000 nM
14  CCCCCc1nc(-c2ccc(Cl)cc2)[nH]c(=O)c1Cc1ccc(C(=O)O)cc1   100 to 1000 nM

* * *

The entries below come with measured pIC50 values attached.
target: Human autotaxin enzyme (Homo sapiens); construct: purchased R&D System; experiment: Evaluation of autotaxin inhibitor, 18:0 Lyso PC / choline assay (Test Example 2); format: biochemical; settings: human autotaxin enzyme, 18:0 Lyso PC substrate, choline assay, room temperature 2 hours; read-out: Inhibitor activity (IC50)
pIC50: −log10 of the molar value.
QUANTITY KIND: pIC50

> print(dat)
                                   compound  quantity.kind  reported.result
1  CCCCCc1nc(-c2ccc(Cl)cc2)cc(=O)n1CC(=O)N1CCC(c2ccccc2C(=O)O)CC1          pIC50     7.00 to 8.00
2  CCCCCNc1nc(-c2ccc(C(F)(F)F)cc2)cc(=O)n1Cc1cccc(C(=O)OC(C)(C)C)c1          pIC50           ≤ 6.00
3  O=C(NCC1(CO)COC1)c1ccc(Cn2c(CCCC(F)(F)F)nc(-c3ccc(Cl)cc3)cc2=O)o1          pIC50     6.00 to 7.00
4  O=C(c1cccc(Cn2c(CCCC(F)(F)F)nc(-c3ccc(Cl)cc3)cc2=O)c1)N1CCOCC1          pIC50     7.00 to 8.00
5  CCCCCc1nc(-c2ccc(Cl)cc2)cc(=O)n1CC(=O)NC(CO)C(=O)O (centres unmarked)          pIC50           > 8.00
